Values from ChEMBL document CHEMBL3860028

# System: Colletotrichum truncatum
# Method description: Antifungal activity against Colletotrichum capsici after 4 to 14 days by serial dilution method
# Format: functional
Readout label: MIC

In [3]: df
Out[3]:
                             compound_string  readout_label  test_value
 0           COc1cc(O)c2c(c1)CCc1cccc(O)c1-2            MIC    > 400 µM
 1             COc1cc(O)cc2c1-c1c(O)cccc1CC2            MIC    > 400 µM
 2          COc1cc(O)cc(CCc2ccc(O)c(OC)c2)c1            MIC     91.2 µM
 3  COc1cc(O)c2c(c1-c1c(OC)cc(O)c3c1CCc1cc(O)ccc1-3)CCc1cc(O)ccc1-2            MIC    > 400 µM
 4   CCCN(CCOc1c(Cl)cc(Cl)cc1Cl)C(=O)n1ccnc1            MIC     33.3 µM
 5  COc1cc(O)c2c(c1)CCc1cc(O)c(-c3c(O)c4cccc(O)c4c4c(OC)cc(OC)cc34)cc1-2            MIC    > 400 µM
 6     COC1=CC(=O)c2c(ccc3cc(O)c(O)cc23)C1=O            MIC    > 400 µM
 7  COC1=CC(=O)C[C@H]2CC(=O)c3cccc(O)c3[C@@]12O            MIC    > 400 µM
 8               Oc1cccc(CCc2cc(O)cc(O)c2)c1            MIC      109 µM
 9    COC1=CC(=O)C[C@@]2(CCc3cccc(O)c32)C1=O            MIC    > 400 µM
10  COc1cc(O)c2c(c1)CCc1cc(O)c(-c3cc4cccc(O)c4c4c(OC)cc(O)cc34)cc1-2            MIC    > 400 µM
11           COc1cc(O)c2c(c1)CCc1cc(O)ccc1-2            MIC    > 400 µM
12   COC1=CC(=O)C[C@H]2CCc3cccc(O)c3[C@@]12O            MIC    > 400 µM
13             COc1cc(CCc2cc(O)cc(O)c2)ccc1O            MIC     96.2 µM
14           O=C1C=CC(=O)C2=C1CCc1cc(O)ccc12            MIC    > 400 µM
15         COc1cc2c(c(OC)c1O)-c1ccc(O)cc1CC2            MIC    > 400 µM
16        COc1c(O)cc2ccc3c(OC)c(O)ccc3c2c1OC            MIC    > 400 µM
17  COc1cc(O)c2c(c1)CCc1cc(Oc3cc(OC)c(O)c4c3CCc3cc(O)ccc3-4)ccc1-2            MIC    > 400 µM
18         COc1cc2c(c(O)c1OC)-c1ccc(O)cc1CC2            MIC    > 400 µM
19  COc1cc(O)c2c(c1)CCc1cc(O)c(-c3c(OC)cc4c(c3O)-c3ccc(O)cc3CC4)cc1-2            MIC    > 400 µM
20         COc1c(O)cc2c(c1OC)-c1ccc(O)cc1CC2            MIC    > 400 µM
21                 COc1cc(O)cc(CCc2ccccc2)c1            MIC      110 µM
22     COC1=CC(=O)C[C@]2(CCc3cccc(O)c32)C1=O            MIC    > 400 µM
23  COc1cc(O)cc2ccc3c(-c4c(O)cc(OC)c5c4ccc4cccc(O)c45)ccc(O)c3c12            MIC    > 400 µM
24  COc1cc(OC)c2c(cc(O)c3cccc(O)c32)c1-c1ccc(O)c2c1ccc1cc(O)cc(OC)c12            MIC    > 400 µM
25              COc1cc(O)cc(CCc2cccc(O)c2)c1            MIC      102 µM
26            COc1c(O)cc2ccc3cc(O)ccc3c2c1OC            MIC    > 400 µM
27              COc1cc(O)cc2ccc3cccc(O)c3c12            MIC    > 400 µM
